These measurements were taken from patent US20110230374A1.

Reported Kd values follow for various binders
- Tested On: T1, hen egg lysozyme (hen, UniProt P00698 19-147)
- T1 construct: Soluble monovalent antigen; Biotinylated for YSD titration; unlabelled analyte in SPR and titrant in ITC; also called HEL
- T1 sequence (P00698 19-147): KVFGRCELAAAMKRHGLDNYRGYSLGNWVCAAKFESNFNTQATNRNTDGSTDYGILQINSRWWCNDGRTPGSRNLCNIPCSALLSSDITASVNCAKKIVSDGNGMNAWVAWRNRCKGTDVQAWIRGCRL
- Assay: ITC at 25 C, VLR refolded from E. coli inclusion bodies, HEL injected

[
  {
    "Binder": "VLRB.2DMut.12 (other) ACPSQCSCSGTTVDCSGKSLASVPTGIPTTTQVLYLYDNQITKLEPGVFDRLTQLTRLDLDNNQLTVLPAGVFDKLTQLTQLSLNDNQLKSIPRGAFDNLKSLTHIWLLNNPWDCACSDILYLSRWISQHPWLVFGYLNLDHDSARCSGTNTPVRAVTEASTSPSKCP",
    "Kd, nM": 28
  },
  {
    "Binder": "VLRB.HEL.2D (other, also called VLRB.2D; wild-type VLRB.2D) ACPSQCSCSGTTVDCSGKSLASVPTGIPTTTQVLYLYDNQITKLEPGVFDRLTQLTRLDLDNNQLTVLPAGVFDKLTQLTQLSLNDNQLKSIPRGAFDNLKSLTHIWLLNNPWDCACSDILYLSRWISQHPGLVFGYLNLDPDSARCSGTNTPVRAVTEASTSPSKCP",
    "Kd, nM": 427
  },
  {
    "Binder": "VLRB.2DMut.15 (other) ACPSQCSCSGTTVDCSGKSLASVPTGIPITTQVLYLYDNQITKLEPGVFDRLTQLTRLDLDNNQLTVLPAGVFDKLTQLTQLSLNVNQLKSIPRGAFDNLKSLTHIWLLNNPWDCACSDILYLSRWISQHPGLVFGYLNLYPDSARCSGTNTPVRAVTEASTSPSKCP",
    "Kd, nM": 8
  },
  {
    "Binder": "VLRB.2DMut.13 (other) ACPSQCSCSGTTVDCSGKSLASVPTGIPTTTQVLYLYDNRITKLEPGVFDRLTQLTRLDLDNNQLTVLPAGVFDKLTQLTQLSLNDNQLKSIPRGAFDNLRSLTHIWLLNNPWDCACSDILYLSRWISQHPWLVFGYLNLDHDSARCSGTNTPVRAVTKASTSPSKCP",
    "Kd, nM": 34
  }
]
